# assayedTarget: His-tagged KRAS G12D protein (Homo sapiens (Human), UniProt P01116, G12D)
# Sequence (P01116 other isoform, or with tags, fused parts or gaps G12D): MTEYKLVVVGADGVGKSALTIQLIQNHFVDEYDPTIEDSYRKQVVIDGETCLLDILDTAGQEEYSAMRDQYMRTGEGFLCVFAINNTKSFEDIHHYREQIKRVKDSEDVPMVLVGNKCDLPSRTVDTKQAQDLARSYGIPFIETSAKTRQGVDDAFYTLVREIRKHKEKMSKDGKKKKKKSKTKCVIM
# experimentSummary: KRAS G12D TR-FRET Assay
# Format: binding
# assaySetup: read-out: KRAS G12D Binding IC50
pIC50: −log10 of the molar value.
Rule: pIC50 of 7 or more gives TRUE; anything lower gives FALSE.

Solved cases below.
molecule	classAssignment
C[C@@]12COCCN(C1)c1nc(OC[C@@]34CCCN3C[C@H](F)C4)nc3c(F)c(ncc13)-c1cccc(Cl)c1CCCOC(=O)O2 [Example 200]	TRUE
Cc1cc2[nH]ncc2c2c1CCCOCC(=O)N1CC[C@@H]3CCN(C[C@@H]31)c1nc(OC[C@@]34CCCN3C[C@H](F)C4)nc3c(F)c-2ncc13 [Example 277]	TRUE

Okay, next one:
Req: API: above_or_equal(metric=pIC50, cutoff=7) for item O=C1N[C@H]2C[C@@H](O)CN(C2)c2nc(OC[C@@]34CCCN3C[C@H](F)C4)nc3c(F)c(ncc23)-c2c(c(Cl)cc3[nH]ncc23)CCCO1 [Example 285]
Resp: FALSE

---

# assayedTarget: GDP-bound KRAS protein (aa 1-169), containing both G12D and C118A amino acid substitutions (Homo sapiens (Human), UniProt P01116, C118A/G12D)
# Sequence (P01116 other isoform, or with tags, fused parts or gaps G12D/C118A): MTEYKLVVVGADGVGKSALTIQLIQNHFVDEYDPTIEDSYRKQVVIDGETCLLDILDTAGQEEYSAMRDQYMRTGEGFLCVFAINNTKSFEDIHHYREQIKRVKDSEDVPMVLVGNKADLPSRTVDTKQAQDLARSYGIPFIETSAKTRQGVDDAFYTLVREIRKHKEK
# experimentSummary: KRAS G12D Coupled Nucleotide Exchange Assay
# Format: biochemical
# assaySetup: read-out: KRAS G12D Coupled Exchange IC50
reportedEndpoint: IC50 (nM)
Note: unit nM is implicit; provide only the numeric part.

compound	IC50 (nM)
O=C1N[C@@H]2C[C@H](O)CN(C2)c2nc(OC[C@@]34CCCN3C[C@H](F)C4)nc3c(F)c(ncc23)-c2c(c(Cl)cc3[nH]ncc23)CCCO1 [Example 284]	2
Cc1cc2[nH]ncc2c2c1CCCOC(=O)O[C@@H]1CCCCN(C1)c1nc(OC[C@@H]3CCCN3C)nc3c(F)c-2ncc13 [Example 206]	9
Cc1cc2[nH]ncc2c2c1CCCCO[C@H](C)[C@@H]1CN(CCO1)c1nc(OC[C@@]34CCCN3C[C@H](F)C4)nc3c(F)c-2ncc13 [Example 243]	4070
O=C1CCCc2c(F)ccc3cc(O)cc(c23)-c2ncc3c(nc(OC[C@@]45CCCN4C[C@H](F)C5)nc3c2F)N2CCC[C@](CF)(C2)O1 [Example 42]	2
O=C1CCCCc2c(Cl)cc3[nH]ncc3c2-c2ncc3c(nc(OC[C@@]45CCCN4C[C@H](F)C5)nc3c2F)N2C[C@H](O)C[C@@H](C2)N1 (racemic) [Example 276]	153
C[C@@]12COCCN(C1)c1nc(OC[C@@]34CCCN3C[C@H](F)C4)nc3c(F)c(ncc13)-c1c3c(cc4[nH]ncc14)CC[C@H]3CCOC(=O)O2 [Example 365]	1

Consider the additional compound presented here.
Req: Reported IC50 for C[C@]12CCCCN(C1)c1nc(OC[C@@]34CCCN3C[C@H](F)C4)nc3c(F)c(ncc13)-c1c(c(Cl)cc3[nH]ncc13)CCCCC(=O)N2 [Example 165] : what is it?
Resp: 4430

---

# assayedTarget: His-tagged KRAS G12D protein (Homo sapiens (Human), UniProt P01116, G12D)
# experimentSummary: KRAS G12D TR-FRET Assay
# Format: binding
# assaySetup: TR-FRET; read-out: KRAS G12D Binding
# IC50 values compiled below
Note: unit nM is implicit; provide only the numeric part.

Known IC50 results, listed for orientation:
compound	IC50, nM
CC12COCCN(C1)c1nc(OC[C@@]34CCCN3C[C@H](F)C4)nc3c(F)c(ncc13)-c1c(c(Cl)cc3[nH]ncc13)CCCc1nc2no1 (mixture of isomers)	9
Fc1c2ncc3c(nc(OC[C@@]45CCCN4C[C@H](F)C5)nc13)N1CCO[C@@H](Cc3ncc(o3)CCc3c(Cl)cc4[nH]ncc4c3-2)C1	5
Fc1c2ncc3c(nc(OC[C@@]45CCCN4C[C@H](F)C5)nc13)N1CCO[C@@H](C1)c1coc(n1)CCCc1c(Cl)cc3[nH]ncc3c1-2	3960
O=C1CCCCc2c(Cl)cc3[nH]ncc3c2-c2ncc3c(nc(OC[C@@]45CCCN4C[C@H](F)C5)nc3c2F)N2CC[C@@H]3[C@H](C2)N1CC3(F)F	3
O=C1CCCCc2c(Cl)cc3[nH]ncc3c2-c2ncc3c(nc(OC[C@@]45CCCN4C[C@H](F)C5)nc3c2F)N2CCC[C@@H](C1)C2	3

Req: Reported IC50 for Fc1c2ncc3c(nc(OC[C@@]45CCCN4C[C@H](F)C5)nc13)N1CCCC[C@](F)(COCCCCc3c(Cl)cc4[nH]ncc4c3-2)C1 : what is it?
Resp: 4

---

# assayedTarget: His-tagged KRAS G12D protein (Homo sapiens (Human), UniProt P01116, G12D)
# experimentSummary: KRAS G12D TR-FRET Assay
# Type: binding
# assaySetup: read-out: KRAS G12D Binding IC50
# pIC50 values compiled below
Lab note: report pIC50 as minus log10 of the concentration in molar units, number only.

Known pIC50 results, listed for orientation:
compound	assayedTarget	pIC50
Cc1cc2[nH]ncc2c2c1CCOC(=O)O[C@H]1C[C@]3(CCCN(C3)c3nc(OC[C@@]45CCCN4C[C@H](F)C5)nc4cc-2nnc34)C1 [Example 358]	His-tagged KRAS G12D protein (Homo sapiens (Human), UniProt P01116, G12D)	7.62
Cc1c2ncc3c(nc(OC[C@]45CC[C@@H](CC4)C(=O)N5)nc13)N1CCC[C@](C)(C1)NC(=O)CCCc1c(F)ccc3cc(O)cc-2c13 [Example 25]	His-tagged KRAS G12D protein (Homo sapiens (Human), UniProt P01116, G12D)	8.00
O=C1OCCCc2c(Cl)cc3[nH]ncc3c2-c2ncc3c(nc(OC[C@@]45CCCN4C[C@H](F)C5)nc3c2F)N2CCOC[C@H](C2)O1 [Example 99]	His-tagged KRAS G12D protein (Homo sapiens (Human), UniProt P01116, G12D)	8.52
CN1CCO[C@@H](COc2nc3c4cnc(c(F)c4n2)-c2c(c(Cl)cc4[nH]ncc24)CCCOC(=O)O[C@@H]2COCCN3C2)C1 [Example 124]	His-tagged KRAS G12D protein (Homo sapiens (Human), UniProt P01116, G12D)	7.70
CN(C)CC1(COc2nc3c4cnc(c(F)c4n2)-c2c(c(Cl)cc4[nH]ncc24)CCCOC(=O)O[C@]2(C)COCCN3C2)CC1 (single isomer, unassigned) [Example 331]	His-tagged KRAS G12D protein (Homo sapiens (Human), UniProt P01116, G12D)	8.30

Consider the additional compound presented here.
Req: Reported pIC50 for Cc1cc2[nH]ncc2c2c1CCCC(=O)OC[C@@H]1CCCN(C1)c1nc(OC[C@@]34CCCN3C[C@H](F)C4)nc3c(F)c-2ncc13 [Example 106] : what is it?
Resp: 8.40

---

# assayedTarget: His-tagged KRAS G12D protein (Homo sapiens (Human), UniProt P01116, G12D)
# experimentSummary: KRAS G12D TR-FRET Assay
# Type: binding
# assaySetup: read-out: KRAS G12D Binding IC50
Label fulfilled when IC50 is strictly below 0.01 µM; otherwise label not fulfilled.

Solved cases below.
molecule	classAssignment
O=C1CC/C=C\c2c(Cl)cc3[nH]ncc3c2-c2ncc3c(nc(OC[C@@]45CCCN4C[C@H](F)C5)nc3c2F)N2CCCC(C2)O1 (stereo in doubt) [Example 35, bis(2,2,2-trifluoroacetate)]	fulfilled
O=C1OC[C@H]2C[C@H]2c2c(Cl)cc3[nH]ncc3c2-c2ncc3c(nc(OC[C@@]45CCCN4C[C@H](F)C5)nc3c2F)N2CCC[C@H](C2)O1 [Example 46, bis(2,2,2-trifluoroacetate)]	not fulfilled
Cc1cc2[nH]ncc2c2c1CCCCC(=O)N1CC3(CCCN(C3)c3nc(OC[C@@]45CCCN4C[C@H](F)C5)nc4c(F)c-2ncc34)C1	not fulfilled
Cc1cc2[nH]ncc2c2c1CCOC(=O)O[C@H]1C[C@]3(CCCN(C3)c3nc(OC[C@@]45CCCN4C[C@H](F)C5)nc4c(F)c-2ncc34)C1	not fulfilled
Cc1cc2[nH]ncc2c2c1CCCOC(=O)O[C@H]1CN(CC[C@H]1F)c1nc(OC[C@@]34CCCN3C[C@H](F)C4)nc3c(F)c-2ncc13 (racemic)	not fulfilled

Req: Hello, I'm reviewing records and need to know if IC50 of O=C1CC[C@@H]2C[C@@H]2c2c(Cl)cc3[nH]ncc3c2-c2ncc3c(nc(OC[C@@]45CCCN4C[C@H](F)C5)nc3c2F)N2CCC[C@H](C2)O1 is below 0.01 µM. Could you check?
Resp: fulfilled

Req: // same read-out, input: O=C1CCCc2c(F)ccc3cccc(c23)-c2ncc3c(nc(OC[C@@]45CCCN4C[C@H](F)C5)nc3c2F)N2CC[C@@H]3CCN1[C@@H]3C2
Resp: not fulfilled
